Listed variants paired with reported polymerase ribozyme fitness (log ratio)
B1: TPR t1 (parent)
chain: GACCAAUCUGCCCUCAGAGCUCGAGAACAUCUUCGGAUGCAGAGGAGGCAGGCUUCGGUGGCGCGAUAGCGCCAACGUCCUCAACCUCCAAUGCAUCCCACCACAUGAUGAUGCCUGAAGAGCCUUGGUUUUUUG

Variants of: B1
Experimental details: polymerase ribozyme fitness, log enrichment relative to wild type (log ratio); higher = more active; in vitro selection for triplet polymerase activity
// return a plain number; no unit text

{"columns": ["Variant code", "polymerase ribozyme fitness (log ratio)"],
 "data": [
  ["C56A G69A C101U G110A", -5.53],
  ["C28U A50U C70A U106A G110A C114A", -5.71],
  ["G10C G120U", -1.23]
]}

Challenge: Return the recorded polymerase ribozyme fitness (log ratio) value; entry: G39U G48U
Response given: -1.59

Challenge: Indicate its recorded polymerase ribozyme fitness (log ratio); the variant in question is C11A U81A
Response given: -2.74

Challenge: Check the records and state polymerase ribozyme fitness (log ratio) for A41U G52C C124U U131C G135U
Response given: -1.81
